These measurements were taken from patent US20250101120A1.

Target: T1, hFc-hFasL (fusion protein of human Fc fragment and human FasL extracellular region) (human, UniProt P48023 134-281)
T1 sequence: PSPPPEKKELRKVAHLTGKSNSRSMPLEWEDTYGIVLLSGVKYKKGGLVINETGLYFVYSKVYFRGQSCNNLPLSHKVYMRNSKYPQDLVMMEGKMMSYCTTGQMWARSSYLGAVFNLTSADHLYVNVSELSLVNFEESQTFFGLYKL
Assay: cell-based or functional assay
readout type: EC50(nM), FasL antigen-induced NF-κB signaling pathway activation (SEAP, HepG2-Dual)
The answer is to be given in nM; state only the numeric part.

Solved entries:
binder: FL-M78 (antibody, V domains shown, Chimeric full-length antibody, tested as human IgG4 / human kappa) VH: DVQLQESGGGLVQPGGSRKLSCAASGFTFSSYDMSWVRQTPEKRLEWVAFISSGGGSTYYPDTVKGRFTISRDNAKNTLYLQMSSLKSEDSAMYYCGRHYDNYLYAMDYWGQGTSVTVSS VL: DIVMTQSPASQSASLGESVTITCLASQTIGTWLAWYQQKPGKSPQLLIYAATSLADGVPSRFSGSGSGTKFSFKISSLQAEDFVSYYCQQLYSTPFTFGGGTKLEIK
reported result: 3.01

binder: FL-M08 (antibody, V domains shown, Chimeric full-length antibody, tested as human IgG4 / human kappa) VH: QIQLLQSGAELVRPGVSVKISCKGSGYTFTDYAMHWVKQSHAKSLEWIGVISTYQGDANYNQKFKGKATMTVDKSSSTAYMELARLTSEDSAIYYCARFPDWDYAMDYWGQGTSVTVSS VL: EIVLTQSPASLAVSLGQRATISCKASQSVDYDGDSYMNWYQQKPGQPPKLLIYAASNLESGIPARFSGSGSGTDFTLNIHPVEEEDAATYYCQHSRELPYTFGGGTKLEIK
reported result: 0.704

Determine its reported EC50(nM), FasL antigen-induced NF-κB signaling pathway activation (SEAP, HepG2-Dual): APG101 (Fas fusion protein, Apogenix) (Fc fusion, UniProt P25445 26-172, looked up, also called Fas-Fc fusion protein APG101; FasL antagonist APG101; not shown: Fc part of APG101) QVTDINSKGLELRKTVTTVETQNLEGLHHDGQFCHKPCPPGERKARDCTVNGDEPDCVPCQEGKEYTDKAHFSSKCRRCRLCDEGHGLEVEINCTRTQNTKCRCKPNFFCNSTVCEHCDPCTKCEHGIIKECTLTSNTKCKEEGSRS
7.23
